Data origin, for the record: patent US12173018B2

Exercise: for every item that follows, state its recorded EC50.
target: E. coli PBP1b (Escherichia coli (strain K12)); experiment: Radioligand competition binding assay with 14C-labeled boronic acid probe, PBP1b
Sequence (P02919 whole entry): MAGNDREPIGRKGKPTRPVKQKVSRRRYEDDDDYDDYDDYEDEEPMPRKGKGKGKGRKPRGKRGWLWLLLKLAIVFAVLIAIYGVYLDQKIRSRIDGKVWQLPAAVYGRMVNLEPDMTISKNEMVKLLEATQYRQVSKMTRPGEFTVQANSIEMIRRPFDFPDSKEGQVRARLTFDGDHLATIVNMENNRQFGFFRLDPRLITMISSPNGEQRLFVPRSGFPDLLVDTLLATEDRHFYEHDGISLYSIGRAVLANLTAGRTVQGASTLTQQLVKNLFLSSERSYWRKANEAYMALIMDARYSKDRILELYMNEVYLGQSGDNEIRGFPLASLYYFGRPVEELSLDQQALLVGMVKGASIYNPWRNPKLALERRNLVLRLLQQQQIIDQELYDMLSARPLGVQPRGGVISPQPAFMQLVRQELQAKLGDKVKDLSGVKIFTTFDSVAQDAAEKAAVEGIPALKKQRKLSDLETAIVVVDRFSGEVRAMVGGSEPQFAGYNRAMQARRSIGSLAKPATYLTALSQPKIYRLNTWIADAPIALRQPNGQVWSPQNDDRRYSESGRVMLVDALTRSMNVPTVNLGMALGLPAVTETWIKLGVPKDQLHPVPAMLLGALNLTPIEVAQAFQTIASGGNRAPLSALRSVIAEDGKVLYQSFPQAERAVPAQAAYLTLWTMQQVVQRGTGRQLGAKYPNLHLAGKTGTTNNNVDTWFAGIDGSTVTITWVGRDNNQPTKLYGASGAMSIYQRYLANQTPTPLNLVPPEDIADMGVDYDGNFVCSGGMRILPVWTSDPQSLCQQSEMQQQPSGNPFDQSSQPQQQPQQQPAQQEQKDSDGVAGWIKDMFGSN
Structures can show the parent of a compound that is named as a salt.

Example cases with answers are listed next.
| COMPOUND | EC50 |
| --- | --- |
| CS(=O)(=O)c1ccc(C(NC(=O)N2CCN(CCF)C(=O)C2=O)C(=O)N[C@H]2Cc3cccc(C(=O)O)c3OB2O)cc1 (stereo partly drawn) | > 100 µM |
| CCN1CCN(C(=O)N[C@@H](C(=O)N[C@H]2Cc3ccc(F)c(C(=O)O)c3OB2O)[C@@H](C)O)C(=O)C1=O | > 100 µM |

Hey, quick one: what's EC50 for each of these?
1. CCN1CCN(C(=O)NC(C(=O)N[C@H]2Cc3cccc(C(=O)O)c3OB2O)C2CCCC2)C(=O)C1=O (stereo partly drawn)
2. O=C(O)c1cccc2c1OB(O)[C@@H](NC(=O)C(NC(=O)N1CCN(CCF)C(=O)C1=O)c1ccc(O)c(O)c1Cl)C2 (stereo partly drawn)
3. CCN1CCN(C(=O)NC(C(=O)N[C@H]2Cc3cccc(C(=O)O)c3OB2O)C2CCN(CC(=O)O)CC2)C(=O)C1=O (stereo partly drawn) [Example 72, trifluoroacetic acid salt]
4. CCN1CCN(C(=O)NC(C(=O)N[C@H]2Cc3cccc(C(=O)O)c3OB2O)c2ccc(O)cc2Cl)C(=O)C1=O (stereo partly drawn)

1. 10 to 100 µM
2. < 10 µM
3. < 10 µM
4. < 10 µM

Hey, quick one: what's EC50 for each of these?
1. CCN1CCN(C(=O)NC(C(=O)N[C@H]2Cc3ccc(F)c(C(=O)O)c3OB2O)c2csc(N)n2)C(=O)C1=O (stereo partly drawn)
2. O=C(O)c1cccc2c1OB(O)[C@@H](NC(=O)C(NC(=O)N1CCN(CCF)C(=O)C1=O)c1ccc(B(O)O)cc1)C2 (stereo partly drawn)
3. CCN1CCN(C(=O)NC(C(=O)N[C@H]2Cc3cccc(C(=O)O)c3OB2O)C(O)c2cccc(O)c2O)C(=O)C1=O (stereo partly drawn)
4. CCN1CCN(C(=O)N[C@H](CNCC(=O)O)C(=O)N[C@H]2Cc3cccc(C(=O)O)c3OB2O)C(=O)C1=O [Example 73, trifluoroacetic acid salt]

1: > 100 µM; 2: > 100 µM; 3: < 10 µM; 4: > 100 µM

Hey, quick one: what's EC50 for each of these?
1. CCN1CCN(C(=O)NC(C(=O)N[C@H]2Cc3ccc(F)c(C(=O)O)c3OB2O)c2ccc(O)c(O)c2Cl)C(=O)C1=O (stereo partly drawn)
2. CCN1CCN(C(=O)NC(CNS(N)(=O)=O)C(=O)N[C@H]2Cc3cccc(C(=O)O)c3OB2O)C(=O)C1=O (stereo partly drawn)
3. CCN1CCN(C(=O)NC(C(=O)N[C@H]2Cc3ccc(F)c(C(=O)O)c3OB2O)c2ncc(O)cc2F)C(=O)C1=O (stereo partly drawn)
4. CCN1CCN(C(=O)NC(C(=O)N[C@H]2Cc3cccc(C(=O)O)c3OB2O)c2ccc(OCCO)cc2)C(=O)C1=O (stereo partly drawn)
5. CCN1CCN(C(=O)N[C@H](CC(=O)O)C(=O)N[C@H]2Cc3cccc(C(=O)O)c3OB2O)C(=O)C1=O
6. CCN1CCN(C(=O)NC(C(=O)N[C@H]2Cc3cccc(C(=O)O)c3OB2O)c2ccc(F)cn2)C(=O)C1=O (stereo partly drawn)

1: < 10 µM; 2: < 10 µM; 3: > 100 µM; 4: > 100 µM; 5: > 100 µM; 6: > 100 µM

Hey, quick one: what's EC50 for each of these?
1. CCN1CCN(C(=O)NC(CNC(=O)c2ccc(O)c(O)c2)C(=O)N[C@H]2Cc3cccc(C(=O)O)c3OB2O)C(=O)C1=O (stereo partly drawn)
2. CCN1CCN(C(=O)NC(C(=O)N[C@H]2Cc3cccc(C(=O)O)c3OB2O)C2CCS(=O)(=O)C2)C(=O)C1=O (stereo partly drawn)

["< 10 µM", "> 100 µM"]
